target: Tyrosine-protein kinase ABL1 (Homo sapiens); details: Compound concentration 20.0 uM, Protein concentration 2.0 uM, Result type QC Liability
Description: Thermal Shift Assay. Domain: start/stop: S229-K512
READOUT_NAME: ΔTm (°C)

CN(C(=O)CCOCCOCCOCCOCCNc1cccc2c1C(=O)N(C1CCC(=O)NC1=O)C2=O)[C@H]1CC[C@@]2(C)[C@@H](CC[C@@H]3[C@@H]2CC[C@]2(C)[C@@H](c4ccc5ccncc5c4)CC[C@@H]32)C1 (stereo partly drawn)
1.62
C[C@H](CCC(=O)O)[C@H]1CC[C@H]2[C@@H]3[C@@H](O)C[C@@H]4C[C@H](O)CC[C@]4(C)[C@H]3CC[C@]12C
0.07
Cc1nnc2n1-c1sc3c(c1C(c1ccccc1Cl)=NC2)CC(C(=O)N1CCOCC1)C3 (stereo not drawn)
0.38
N[C@H](C(=O)O)[C@@H]1CC(Cl)=NO1
-0.08
C[C@@H](CN1CC[C@@]2(C)c3cccc(O)c3C[C@@H]1C2(C)C)OCc1ccccc1
-0.13
CS(=O)(=O)c1ccc(-c2cnc(N)c(C(=O)Nc3ccccc3)n2)cc1
0.67
COP(=O)(CCC(N)C(=O)O)Oc1cccc(CC(=O)O)c1 (stereo not drawn)
-0.06
CO[C@H](C)CN1CC[C@@]2(C)c3ccc(O)cc3C[C@@H]1C2(C)C
0.21

====

target: Cyclin-dependent kinase 2 (Homo sapiens) (UniProt P24941); details: Compound concentration 20.0 uM, Protein concentration 2.0 uM, Result type QC Liability
Description: Thermal Shift Assay. Domain: start/stop: M1-L298
READOUT_NAME: ΔTm

CN(C(=O)CCOCCOCCOCCOCCNc1cccc2c1C(=O)N(C1CCC(=O)NC1=O)C2=O)[C@H]1CC[C@@]2(C)[C@@H](CC[C@@H]3[C@@H]2CC[C@]2(C)[C@@H](c4ccc5ccncc5c4)CC[C@@H]32)C1 (stereo not given in full)
0.45 °C
COP(=O)(CCC(N)C(=O)O)Oc1cccc(CC(=O)O)c1 (stereo not given)
0.07 °C
CCN(CC)CCO[C@H]1CC[C@@]2(C)C(=CC[C@@H]3[C@@H]2CC[C@]2(C)C(=O)CC[C@@H]32)C1
0.63 °C
C[C@@H](CN1CC[C@@]2(C)c3cccc(O)c3C[C@@H]1C2(C)C)OCc1ccccc1
0.59 °C
C[C@@H]1CC[C@@]2(OC1)O[C@H]1[C@@H](O)[C@H]3[C@@H]4CC[C@H]5C[C@@H](O[C@@H]6O[C@H](CO)[C@H](O[C@@H]7O[C@H](CO)C(O)[C@H](O[C@@H]8OC[C@@H](O)[C@H](O)[C@H]8O)[C@H]7O[C@@H]7O[C@H](CO)[C@H](O)[C@H](O[C@@H]8O[C@H](CO)[C@@H](O)[C@H](O)[C@H]8O)[C@H]7O)[C@H](O)[C@H]6O)[C@H](O)C[C@]5(C)[C@H]4CC[C@]3(C)[C@H]1[C@@H]2C (stereo not given in full)
0.55 °C
Cn1ncc(-c2nc(N[C@H]3CC[C@H](N)CC3)ncc2Cl)c1CC1CC1
12.7 °C
C[C@@H](CO)CCC[C@@H](C)[C@H]1CC[C@H]2[C@@H]3CC=C4C[C@@H](O)CC[C@]4(C)[C@H]3CC[C@]12C
0.17 °C
CS(=O)(=O)c1ccc(-c2cnc(N)c(C(=O)Nc3ccccc3)n2)cc1
0.23 °C
C=CC(=O)N1CCC[C@@H](n2nc(-c3ccc(Oc4ccccc4)cc3)c3c(N)ncnc32)C1
0.83 °C
Cc1nnc2n1-c1sc3c(c1C(c1ccccc1Cl)=NC2)C[C@H](C(=O)N1CCOCC1)C3
0.85 °C
CCN1C(=O)C(c2cccc(C(=O)O)c2)C(=O)N(c2ccccc2)c2cc(C(F)(F)F)ccc21 (stereo not given)
-0.13 °C
COc1ccc(OC(=O)N(CC(=O)O)Cc2ccc(OCCc3nc(-c4ccccc4)oc3C)cc2)cc1
-0.27 °C
C=CC(=O)Nc1cc(-c2nn(C3CCC(N4CCN(C(C)=O)CC4)CC3)c3ncnc(N)c23)ccc1Oc1ccccc1 (stereo not given)
0.18 °C
CCCn1cc(-c2cc(C3C(=O)N(CC)c4ccc(C(F)(F)F)cc4N(c4ccccc4)C3=O)cc(OC)c2O)cn1 (stereo not given)
1.16 °C
Cc1nnc2n1-c1sc(CCC(=O)N3CCOCC3)cc1C(c1ccccc1Cl)=NC2
0.99 °C
